assay-system: Phosphodiesterase 4 (Homo sapiens, UniProt P27815+Q08499+Q07343+Q08493)
experiment: Inhibition of PDE4 enzyme from U937 cells
Type: cell-based
applied-conditions: u-937
# label = criterion met if IC50 < 2000 nM else criterion not met

Exam item: Lab log: compare recorded IC50 with 2000 nM; is it strictly lower for COC(=O)CC(c1ccc(OC)c(OC)c1)N1C(=O)c2ccccc2C1=O (stereo unspecified) ?
Marked response: criterion not met

Exam item: Lab log: compare recorded IC50 with 2000 nM; is it strictly lower for COC(=O)CC(c1ccc(OC)c(OC2CC3CCC2C3)c1)N1C(=O)c2ccccc2C1=O (stereo unspecified) ?
Marked response: criterion met

Exam item: Lab log: compare recorded IC50 with 2000 nM; is it strictly lower for COc1ccc(C(CC(N)=O)N2C(=O)c3ccccc3C2=O)cc1OC (stereo unspecified) ?
Marked response: criterion not met

Exam item: Lab log: compare recorded IC50 with 2000 nM; is it strictly lower for COc1ccc(C(CC#N)N2C(=O)c3ccccc3C2=O)cc1OC (stereo unspecified) ?
Marked response: criterion met

Exam item: Lab log: compare recorded IC50 with 2000 nM; is it strictly lower for COc1ccc(C(CC#N)N2C(=O)c3ccccc3C2=O)cc1OC1CCCC1 (stereo unspecified) ?
Marked response: criterion met

Exam item: Lab log: compare recorded IC50 with 2000 nM; is it strictly lower for COc1ccc(C(CC(N)=O)N2C(=O)c3ccccc3C2=O)cc1OC1CCCC1 (stereo unspecified) [CDC-801] ?
Marked response: criterion met

Exam item: Lab log: compare recorded IC50 with 2000 nM; is it strictly lower for CCOc1cc(C(CC#N)N2C(=O)c3ccccc3C2=O)ccc1OC (stereo unspecified) ?
Marked response: criterion met

Exam item: Lab log: compare recorded IC50 with 2000 nM; is it strictly lower for CCOc1cc(C(CC(=O)OC)N2C(=O)c3ccccc3C2=O)ccc1OC (stereo unspecified) ?
Marked response: criterion met

Exam item: Lab log: compare recorded IC50 with 2000 nM; is it strictly lower for COC(=O)CC(c1ccc(OC)c(OC2CCCC2)c1)N1C(=O)c2ccccc2C1=O (stereo unspecified) ?
Marked response: criterion met

Exam item: Lab log: compare recorded IC50 with 2000 nM; is it strictly lower for O=C1CCC(N2C(=O)c3ccccc3C2=O)C(=O)N1 (stereo unspecified) [THALIDOMIDE] ?
Marked response: criterion not met

src = ChEMBL document CHEMBL1130594
